For each record, write down the corresponding pIC50.
tested on: T47D; experiment: Microculture tetrazolium assay; assay type: cell-based; conditions: Homo sapiens, read-out: IC50
Counter-ions that a name gives are not always drawn.
Answers are plain numbers, as −log10 of the molar value.

Some solved cases for reference:
INSERT INTO measurements (compound, measure_name, quantitative_result) VALUES
  ('CC(=O)[C@H]1Cc2c(O)c3c(c(O)c2[C@H](O[C@H]2C[C@H](N)[C@H](O)[C@H](C)O2)O1)C(=O)c1ccccc1C3=O [BCH-1195, hydrochloride]', 'pIC50', 5.85),
  ('COC[C@H]1CC2=C(C(=O)c3cc4ccccc4c(O)c3C2=O)[C@H](O[C@H]2C[C@H](NC(=O)C(F)(F)F)[C@H](O)[C@H](C)O2)O1', 'pIC50', 5.92),
  ('COCC1(COC)CC2=C(C(=O)c3cc4ccccc4c(O)c3C2=O)[C@H](O[C@H]2C[C@H](N)[C@H](O)[C@H](C)O2)O1 [BCH-1991, hydrochloride]', 'pIC50', 6.04),
  ('CC(=O)[C@@H]1CC2=C(C(=O)c3cc4ccccc4c(O)c3C2=O)[C@@H](O[C@H]2C[C@H](N)[C@H](O)[C@H](C)O2)O1', 'pIC50', 5.88);

Then there is this compound:
*Q* Can you share its pIC50? I mean this compound: COCOCC(=O)C1CC2=C(CO1)C(=O)c1cc3ccccc3c(O)c1C2=O (centres unmarked)
*A* 4.89
